Items are presented alongside their recorded inhibition at 12.5 µM.
tested on: UniProtKB Q9NQS5
assay protocol: Gai biosensor BRET assay (GPR84-mediated activation of Gai, antagonist mode against agonist ZQ-16)
Format: cell-based
condition: compound tested at 12.5 μM (concentration code E)

Worked examples follow.
Cc1ccc(-c2ccc(-c3cc(OCC4CCCCO4)ncn3)cc2)cn1 (stereo not shown): < 25%
Cc1cc(OCC2COc3ccccc3O2)cc(=O)n1Cc1ccc(C#CC2CC2)cc1 (stereo not shown): < 25%
Cc1cc(OCc2ccccn2)ccc1-c1cc(OCC2COCCO2)cc(Cl)n1 (stereo not shown): 25 to 50%

// next item, inhibition at 12.5 µM requested
### Prompt I'd like to know its inhibition at 12.5 µM. The compound in question is Clc1cc(OCC2COCCO2)cc(-c2ccc(OCc3ccccn3)cc2)n1 (stereo not shown)
### Response < 25%

====

Items are presented alongside their recorded pIC50.
tested on: GPR84 (Homo sapiens (Human), UniProt Q9NQS5)
Sequence (Q9NQS5 whole entry): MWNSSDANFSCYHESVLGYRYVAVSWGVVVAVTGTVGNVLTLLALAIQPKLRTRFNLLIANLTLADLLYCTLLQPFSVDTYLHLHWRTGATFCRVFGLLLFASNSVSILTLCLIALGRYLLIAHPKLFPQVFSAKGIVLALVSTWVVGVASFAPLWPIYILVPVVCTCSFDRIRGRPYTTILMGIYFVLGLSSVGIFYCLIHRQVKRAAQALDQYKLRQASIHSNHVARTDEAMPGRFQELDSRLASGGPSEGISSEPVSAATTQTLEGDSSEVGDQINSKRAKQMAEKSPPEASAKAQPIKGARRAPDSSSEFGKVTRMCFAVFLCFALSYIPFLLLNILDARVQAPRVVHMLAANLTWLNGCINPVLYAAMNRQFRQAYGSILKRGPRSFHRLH
assay protocol: Gai biosensor BRET assay (GPR84-mediated activation of Gai, antagonist mode against agonist ZQ-16)
Type: cell-based
condition: HEK293 cells, 200 nmol/L GPR84 agonist ZQ-16, read-out: hGPR84 IC50
pIC50: −log10 of the molar value.

Cc1cc(OC[C@@H]2CCCOC2)cc(=O)n1[C@H](C)c1ccc(C#CC2CC2)cc1: > 5.30
Cc1cc(OCc2cncnc2)cc(=O)n1[C@H](C)c1ccc(C#CC2CC2)cc1: > 5.30
O=C(CC1CCOCC1)N1Cc2ccc(C#CC3CC3)cc2C1: < 4.60
Cc1cc(OCc2cnccn2)cc(=O)n1[C@H](C)c1ccc(C#CC2CC2)cc1: > 5.30
Cc1cc(NC(=O)c2ncccn2)cc(=O)n1[C@H](C)c1ccc(C#CC2CC2)cc1: > 5.30
Cc1cc(OCc2ncccn2)cc(=O)n1[C@H](C)c1ccc(C#CC2CC2)cc1: > 5.30

### Prompt I'd like to know its pIC50. The molecule in question is Cc1cc(OCc2ccccn2)cc(=O)n1[C@H](C)c1ccc(C#CC2CC2)cc1
### Response > 5.30

### Prompt I'd like to know its pIC50. The molecule in question is Cc1cc(OCc2ncccc2Cl)cc(=O)n1[C@H](C)c1ccc(C#CC2CC2)cc1
### Response > 5.30

### Prompt I'd like to know its pIC50. The molecule in question is Cc1cc(OCc2ncccn2)cc(=O)n1C(C)c1ccc(C#CC2CC2)c(F)c1 (stereo not shown)
### Response > 5.30

### Prompt I'd like to know its pIC50. The molecule in question is CCn1ccnc1COc1cc(C)n([C@H](C)c2ccc(C#CC3CC3)cc2)c(=O)c1
### Response > 5.30

### Prompt I'd like to know its pIC50. The molecule in question is Cc1cc(OCc2cnccc2Cl)cc(=O)n1[C@H](C)c1ccc(C#CC2CC2)cc1
### Response > 5.30

### Prompt I'd like to know its pIC50. The molecule in question is Cc1cc(OCc2cscn2)cc(=O)n1[C@H](C)c1ccc(C#CC2CC2)cc1
### Response > 5.30

### Prompt I'd like to know its pIC50. The molecule in question is Cc1cc(OCc2cccnn2)cc(=O)n1C(C)c1ccc(C#CC2CC2)c(F)c1 (stereo not shown)
### Response > 5.30

### Prompt I'd like to know its pIC50. The molecule in question is Cc1cc(OCc2cccnn2)cc(=O)n1[C@H](C)c1ccc(C#CC2CC2)cc1
### Response > 5.30

### Prompt I'd like to know its pIC50. The molecule in question is Cc1cc(OCc2cnnn2C)cc(=O)n1[C@H](C)c1ccc(C#CC2CC2)cc1
### Response > 5.30

### Prompt I'd like to know its pIC50. The molecule in question is Cc1cc(OC[C@@H]2COCCO2)cc(=O)n1[C@H](C)c1ccc(C#CC2CC2)cc1
### Response > 5.30

### Prompt I'd like to know its pIC50. The molecule in question is COc1cc(OCC2COCCO2)cc(-c2ccc(-c3ccc(C)nc3)cc2)n1 (stereo not shown)
### Response < 4.60

### Prompt I'd like to know its pIC50. The molecule in question is Cc1cc(OCc2ncccn2)cc(=O)n1[C@@H](C)c1ccc(C#CC2CC2)c(F)c1
### Response 4.82 to 5.00

### Prompt I'd like to know its pIC50. The molecule in question is Cc1cc(OCc2cncnc2)cc(=O)n1C(C)c1ccc(C#CC2CC2)c(F)c1 (stereo not shown)
### Response > 5.30
